assay: Cytotoxicity against human DU145 cells assessed as cell growth at 10^-5 M after 48 hrs by sulforhodamine B assay; format: functional; conditions: DU-145, 48 h, read-out: Activity

molecule	growth at 10 µM, %
CN1C(=O)C(=Cc2cn(CC(O)Cn3cc(C=C4C(=O)N(C)C(=O)N(C)C4=O)c4ccccc43)c3ccccc23)C(=O)N(C)C1=O	106
COc1cc(/C=C2\C(=O)Nc3ccccc32)cc(OC)c1O	92.5
O=C1Nc2ccccc2/C1=C/c1cn(CC(O)Cn2cc(/C=C3\C(=O)Nc4ccccc43)c3ccccc32)c2ccccc12 (stereo not given)	-90.5
O=C1NC(=O)C(=Cc2cn(CC(O)Cn3cc(C=C4C(=O)NC(=O)NC4=O)c4ccccc43)c3ccccc23)C(=O)N1	104
CC1=NN(c2cccc(Cl)c2)C(=O)/C1=C\c1cn(CC(O)Cn2cc(/C=C3\C(=O)N(c4cccc(Cl)c4)N=C3C)c3ccccc32)c2ccccc12	111

---

test: Cytotoxicity against human SNB19 cells assessed as cell growth at 10^-5 M after 48 hrs by sulforhodamine B assay; format: functional; details: SNB-19, 48 h, read-out: Activity
measure: growth at 10 µM (%)

compound	measure	reported_result
O=C1NC(=O)C(=Cc2cn(CC(O)Cn3cc(C=C4C(=O)NC(=O)NC4=O)c4ccccc43)c3ccccc23)C(=O)N1	growth at 10 µM	103
CN1C(=O)C(=Cc2cn(CC(O)Cn3cc(C=C4C(=O)N(C)C(=O)N(C)C4=O)c4ccccc43)c3ccccc23)C(=O)N(C)C1=O	growth at 10 µM	102
O=C1Nc2ccccc2/C1=C/c1cn(CC(O)Cn2cc(/C=C3\C(=O)Nc4ccccc43)c3ccccc32)c2ccccc12 (stereo not given)	growth at 10 µM	-43
CC1=NN(c2cccc(Cl)c2)C(=O)/C1=C\c1cn(CC(O)Cn2cc(/C=C3\C(=O)N(c4cccc(Cl)c4)N=C3C)c3ccccc32)c2ccccc12	growth at 10 µM	107
COc1cc(/C=C2\C(=O)Nc3ccccc32)cc(OC)c1O	growth at 10 µM	83.7

---

experiment: Cytotoxicity against human OVCAR8 cells assessed as cell growth at 10^-5 M after 48 hrs by sulforhodamine B assay; format: functional; conditions: OVCAR-8, 48 h, read-out: Activity
Measured growth at 10 µM, listed per entry for reference.
measure: growth at 10 µM (%)

compound	reported_result
CN1C(=O)C(=Cc2cn(CC(O)Cn3cc(C=C4C(=O)N(C)C(=O)N(C)C4=O)c4ccccc43)c3ccccc23)C(=O)N(C)C1=O	114
CC1=NN(c2cccc(Cl)c2)C(=O)/C1=C\c1cn(CC(O)Cn2cc(/C=C3\C(=O)N(c4cccc(Cl)c4)N=C3C)c3ccccc32)c2ccccc12	115
O=C1Nc2ccccc2/C1=C/c1cn(CC(O)Cn2cc(/C=C3\C(=O)Nc4ccccc43)c3ccccc32)c2ccccc12 (stereo not given)	1.35
COc1cc(/C=C2\C(=O)Nc3ccccc32)cc(OC)c1O	78.5
O=C1NC(=O)C(=Cc2cn(CC(O)Cn3cc(C=C4C(=O)NC(=O)NC4=O)c4ccccc43)c3ccccc23)C(=O)N1	117

---

test system: SK-MEL-5; test: Cytotoxicity against human SK-MEL-5 cells assessed as cell growth at 10^-5 M after 48 hrs by sulforhodamine B assay; format: functional; conditions: SK-MEL-5, 48 h, read-out: Activity

molecule	growth at 10 µM (%)
O=C1Nc2ccccc2/C1=C/c1cn(CC(O)Cn2cc(/C=C3\C(=O)Nc4ccccc43)c3ccccc32)c2ccccc12 (stereo not given)	-80.2
CC1=NN(c2cccc(Cl)c2)C(=O)/C1=C\c1cn(CC(O)Cn2cc(/C=C3\C(=O)N(c4cccc(Cl)c4)N=C3C)c3ccccc32)c2ccccc12	101
CN1C(=O)C(=Cc2cn(CC(O)Cn3cc(C=C4C(=O)N(C)C(=O)N(C)C4=O)c4ccccc43)c3ccccc23)C(=O)N(C)C1=O	97
O=C1NC(=O)C(=Cc2cn(CC(O)Cn3cc(C=C4C(=O)NC(=O)NC4=O)c4ccccc43)c3ccccc23)C(=O)N1	101
COc1cc(/C=C2\C(=O)Nc3ccccc32)cc(OC)c1O	45.7
